Molecular target: T1, human GIP receptor (human, UniProt P48546 22-466)
T1 sequence (looked up): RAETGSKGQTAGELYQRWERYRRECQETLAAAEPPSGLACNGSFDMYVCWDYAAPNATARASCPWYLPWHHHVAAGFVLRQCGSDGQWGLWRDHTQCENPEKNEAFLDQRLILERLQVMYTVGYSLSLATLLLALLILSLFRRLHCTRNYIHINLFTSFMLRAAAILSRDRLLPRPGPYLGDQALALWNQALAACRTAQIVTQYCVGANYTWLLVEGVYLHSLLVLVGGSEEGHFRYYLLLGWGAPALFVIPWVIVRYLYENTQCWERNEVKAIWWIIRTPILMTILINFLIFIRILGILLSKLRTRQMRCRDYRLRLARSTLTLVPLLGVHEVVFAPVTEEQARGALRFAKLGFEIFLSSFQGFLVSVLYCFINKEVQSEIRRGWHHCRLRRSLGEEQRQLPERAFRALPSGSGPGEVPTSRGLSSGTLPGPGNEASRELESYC
Assay: cell-based or functional assay
Positions of bridges follow the written chain, without caps; N, C: chain ends. Non-standard residues stand in square brackets, D forms with d. No end group written: not given here. *: point of attachment. Acetyl(2-(4-imidazolyl)) = O=C(Cc1c[nH]cn1)*; Aib = CC(C)(N)C(=O)O
metric: In vitro Activity Compared to Native Peptide (%) vs. GIP
Express your answer in %, writing the number without its unit.

Give the measured In vitro Activity Compared to Native Peptide (%) vs. GIP of H[Aib]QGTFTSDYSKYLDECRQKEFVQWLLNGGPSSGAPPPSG (bridge 16-20) [triple agonist of SEQ ID NO: 37] .
2.2

What value of measured In vitro Activity Compared to Native Peptide (%) vs. GIP is listed for [Acetyl(2-(4-imidazolyl))][Aib]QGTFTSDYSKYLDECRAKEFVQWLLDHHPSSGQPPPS (bridge 16-20) [triple agonist of SEQ ID NO: 73] ?
3

State the recorded In vitro Activity Compared to Native Peptide (%) vs. GIP for this entry: H[Aib]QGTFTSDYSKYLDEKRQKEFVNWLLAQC (bridge 16-20) [triple agonist of SEQ ID NO: 56]
0.8

For H[Aib]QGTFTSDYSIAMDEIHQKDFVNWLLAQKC (bridge 16-20; also: ring type not given here) [triple agonist of SEQ ID NO: 33] , what is its reported In vitro Activity Compared to Native Peptide (%) vs. GIP?
10.4

Could you tell me which In vitro Activity Compared to Native Peptide (%) vs. GIP is on file for H[Aib]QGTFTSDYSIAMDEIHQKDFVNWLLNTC (bridge 16-20) [triple agonist of SEQ ID NO: 57] ?
0.3

What In vitro Activity Compared to Native Peptide (%) vs. GIP value was documented for this binder, Y[Aib]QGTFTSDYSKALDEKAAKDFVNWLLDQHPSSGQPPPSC (bridge 16-20) [triple agonist of SEQ ID NO: 102] ?
58

Consider the binder Y[Aib]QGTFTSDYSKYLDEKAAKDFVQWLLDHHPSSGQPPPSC (bridge 16-20) [triple agonist of SEQ ID NO: 77] and give its measured In vitro Activity Compared to Native Peptide (%) vs. GIP.
35.5

So what's the measured In vitro Activity Compared to Native Peptide (%) vs. GIP for this one? [Acetyl(2-(4-imidazolyl))][Aib]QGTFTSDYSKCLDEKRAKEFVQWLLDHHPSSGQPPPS (bridge 16-20) [triple agonist of SEQ ID NO: 74]
1

Given the binder {Acetyl(2-(4-imidazolyl))}-[Aib]QGTFTSDYSICMDEIHQKDFVNWLLNTK (bridge 15-19) [triple agonist of SEQ ID NO: 49] , what is its reported In vitro Activity Compared to Native Peptide (%) vs. GIP?
3.3

What measured In vitro Activity Compared to Native Peptide (%) vs. GIP goes with Y[Aib]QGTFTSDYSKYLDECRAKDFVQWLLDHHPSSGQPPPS (bridge 16-20) [triple agonist of SEQ ID NO: 66] ?
17.2

I'd like to know its In vitro Activity Compared to Native Peptide (%) vs. GIP. The binder in question is Y[Aib]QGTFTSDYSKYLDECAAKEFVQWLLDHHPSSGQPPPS (bridge 16-20) [triple agonist of SEQ ID NO: 64]
92.9
